# Target System: SIK1 (Homo sapiens)
# Construct: purchased Carna Biosciences 02-131
# Sequence (P57059 whole entry): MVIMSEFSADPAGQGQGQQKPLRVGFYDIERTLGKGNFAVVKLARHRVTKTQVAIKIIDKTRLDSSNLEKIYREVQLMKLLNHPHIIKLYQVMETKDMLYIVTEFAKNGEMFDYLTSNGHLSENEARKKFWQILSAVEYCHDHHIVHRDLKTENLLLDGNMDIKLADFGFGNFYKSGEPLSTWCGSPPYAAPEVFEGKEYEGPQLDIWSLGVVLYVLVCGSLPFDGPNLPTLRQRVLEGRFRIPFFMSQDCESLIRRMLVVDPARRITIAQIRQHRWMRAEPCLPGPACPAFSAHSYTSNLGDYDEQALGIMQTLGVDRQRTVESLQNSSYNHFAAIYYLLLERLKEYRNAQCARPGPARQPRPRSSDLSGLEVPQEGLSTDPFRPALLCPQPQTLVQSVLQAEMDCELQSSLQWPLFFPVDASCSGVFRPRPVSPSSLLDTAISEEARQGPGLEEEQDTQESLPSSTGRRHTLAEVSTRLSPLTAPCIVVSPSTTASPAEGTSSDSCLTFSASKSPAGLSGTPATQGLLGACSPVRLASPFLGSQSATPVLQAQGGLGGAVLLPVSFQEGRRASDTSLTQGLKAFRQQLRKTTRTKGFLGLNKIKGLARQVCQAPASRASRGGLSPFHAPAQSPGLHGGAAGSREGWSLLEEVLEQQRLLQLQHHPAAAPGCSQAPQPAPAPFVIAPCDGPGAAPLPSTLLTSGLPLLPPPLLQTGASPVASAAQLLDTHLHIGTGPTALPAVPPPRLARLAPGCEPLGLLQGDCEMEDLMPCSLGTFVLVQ
# Experiment Description: ADP-Glo kinase assay, SIK1
# Format: biochemical
pIC50: −log10 of the molar value.
Reported Endpoint: pIC50

Here's what some known entries look like.
{"Compound": "COc1cc(-c2cnc3cc(C4COC4)ccn23)cc(OC(F)F)c1C(=O)NC1CC1", "Measured Value": "6.30 to 7.00"}
{"Compound": "COc1cc(-c2cnn3cc(C4COC4)ccc23)cc(OC(F)F)c1C(=O)N[C@@H]1C[C@@H]1F", "Measured Value": "6.30 to 7.00"}
{"Compound": "COc1cc(-c2cnc3cc(C(C)N4CCOCC4)ccn23)cc(OC(F)F)c1C(=O)NC1CC1 (centres unmarked)", "Measured Value": "< 6.30"}

Consider the additional compound presented here.
Lookup: Short answer please: pIC50, SIK1 (Homo sapiens), entry CCN(CC)C(C)c1ccn2c(-c3cc(OC)c(C(=O)NC4CC4)c(OC(F)F)c3)cnc2c1 (centres unmarked)
Found: < 6.30

----------
# Target System: SIK3 (Homo sapiens, UniProt Q9Y2K2)
# Construct: purchased SignalChem S12-11G-100
# Sequence (Q9Y2K2 59-365 limits assumed): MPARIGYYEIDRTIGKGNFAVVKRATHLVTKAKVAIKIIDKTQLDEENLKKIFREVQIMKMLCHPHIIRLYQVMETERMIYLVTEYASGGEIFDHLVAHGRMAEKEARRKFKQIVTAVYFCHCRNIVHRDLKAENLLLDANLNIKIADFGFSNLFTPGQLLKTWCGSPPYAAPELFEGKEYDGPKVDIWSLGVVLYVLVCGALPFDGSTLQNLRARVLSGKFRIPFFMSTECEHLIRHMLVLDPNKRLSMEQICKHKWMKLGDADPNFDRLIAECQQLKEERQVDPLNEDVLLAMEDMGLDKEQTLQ
# Experiment Description: ADP-Glo kinase assay, SIK3
# Type: biochemical
pIC50: −log10 of the molar value.
Reported Endpoint: pIC50

{"Compound": "COc1cc(-c2cnc3cc(C4(O)CCOC4)ccn23)cc(OC(F)F)c1C(=O)NC1CC1 (stereo not shown)", "pIC50": "7.00 to 8.00"}
{"Compound": "COc1cc(-c2cnn3cc(C4COCCO4)ccc23)cc(OC(F)F)c1C(=O)NC1CC1 (stereo not shown)", "pIC50": "8.00 to 11.00"}
{"Compound": "COc1cc(-c2cnc3cc(C4CCN4C)ccn23)cc(OC(F)F)c1C(=O)NC1CC1 (stereo not shown)", "pIC50": "7.00 to 8.00"}

// moving on: another record for pIC50
Lookup: Dear colleague, I am looking for the recorded pIC50 of the following compound: COc1cc(-c2cnc3cc(C(C)N4CCCC4)ccn23)cc(OC(F)F)c1C(=O)NC1CC1 (stereo not shown)
Found: 7.00 to 8.00

----------
# Target System: SIK3 (Homo sapiens, UniProt Q9Y2K2)
# Construct: purchased SignalChem S12-11G-100
# Experiment Description: ADP-Glo kinase assay, SIK3
# Assay type: biochemical
pIC50: −log10 of the molar value.
Reported Endpoint: pIC50

Solved entries:
{"Compound": "COc1cc(-c2cnc3cc(C(C)(C)C#N)ccn23)cc(OC(F)F)c1C(=O)NC(CO)C1CC1 (stereo not shown)", "Target System": "SIK3 (Homo sapiens, UniProt Q9Y2K2)", "pIC50": "< 6.30"}
{"Compound": "COc1cc(-c2cnc3cc(C(C)(C)c4noc(C)n4)ccn23)cc(OC(F)F)c1C(=O)NC1CC1", "Target System": "SIK3 (Homo sapiens, UniProt Q9Y2K2)", "pIC50": "7.00 to 8.00"}
{"Compound": "COc1cc(-c2cnc3cc(C(C)(C)C#N)ccn23)cc(OC(F)F)c1C(=O)NCCN1CCOCC1", "Target System": "SIK3 (Homo sapiens, UniProt Q9Y2K2)", "pIC50": "6.30 to 7.00"}
{"Compound": "COc1cc(-c2cnc3cc(C4CCN(C)CC4)ccn23)cc(OC)c1C(=O)NCC(F)(F)F", "Target System": "SIK3 (Homo sapiens, UniProt Q9Y2K2)", "pIC50": "7.00 to 8.00"}
{"Compound": "COc1cc(-c2cnc3cc(C(C)N4CCOCC4)ccn23)cc(OC(F)F)c1C(=O)NC1CC1 (stereo not shown)", "Target System": "SIK3 (Homo sapiens, UniProt Q9Y2K2)", "pIC50": "7.00 to 8.00"}

Attention now shifts to the item below.
Lookup: Dear colleague, I am looking for the recorded pIC50 of the following compound: CCC(O)(CC)c1ccn2c(-c3cc(OC)c(C(=O)NC4CC4)c(OC(F)F)c3)cnc2c1
Found: 6.30 to 7.00

Origin of values: patent US12391679B2
